target: CXCR4 receptors (Homo sapiens); construct: expressing endogenous CXCR4 receptors; endogenous in cells; assay: CXCR4-CEM calcium flux assay, antagonist mode (inhibition of SDF-1α-induced calcium flux); conditions: inhibition of calcium flux induced by 4 nM SDF-1α in CCRF-CEM cells
# reported pIC50; entries follow
In plain terms, pIC50 is the concentration in mol/L turned into minus its base-10 logarithm.

// below: answered compounds
{"columns": ["COMPOUND", "MEASURE", "VALUE_REPORTED"],
 "data": [
  ["COc1cc2nc(CN(C)[C@H]3CCCc4cccnc43)cn2c(N2CCN(C)CC2)n1", "pIC50", 7.00],
  ["CN(Cc1cn2c(N3CCNCC3)nccc2n1)[C@H]1CCCc2cccnc21", "pIC50", 8.09],
  ["CN(Cc1cn2c(N3CCN4CCC[C@H]4C3)nccc2n1)[C@H]1CCCc2cccnc21", "pIC50", 8.19],
  ["COc1cc2nc(CN(C)[C@H]3CCCc4cccnc43)cn2c(N2CCNCC2)n1", "pIC50", 6.72]
]}

We now examine a further compound.
Task: Requested field: pIC50. Item: CN1CCCC2CN(c3nccc4nc(CN(C)[C@H]5CCCc6cccnc65)cn34)CC21 (some centres unmarked) [Example 102]
Result: 6.68

* * *

target: CXCR4 receptors (Homo sapiens); construct: expressing endogenous CXCR4 receptors; endogenous in cells; test: CXCR4-CEM calcium flux assay, antagonist mode (inhibition of SDF-1α-induced calcium flux); details: inhibition of calcium flux induced by 4 nM SDF-1α in CCRF-CEM cells
MEASURE: IC50 (nM)
# unit: nM | format: bare number

// below: answered compounds
{"columns": ["COMPOUND", "TARGET_SYSTEM", "IC50, nM"],
 "data": [
  ["CN1CCC2CN(c3nccc4nc(CN(C)[C@H]5CCCc6cccnc65)cn34)CC21 (some centres unmarked) [Example 101]", "CXCR4 receptors (Homo sapiens)", 220],
  ["CN(Cc1cn2c(N3CCN(Cc4ccc(-c5ccccc5)cc4)CC3)nccc2n1)[C@H]1CCCc2cccnc21", "CXCR4 receptors (Homo sapiens)", 9.7],
  ["Cc1cccc(CN2CCN(c3nccc4nc(CN(C)[C@H]5CCCc6cccnc65)cn34)CC2)c1", "CXCR4 receptors (Homo sapiens)", 2.9],
  ["COc1nc(N2CCN(C)CC2)n2cc(CN(C)[C@H]3CCCc4cccnc43)nc2c1CO", "CXCR4 receptors (Homo sapiens)", 370]
]}

Task: Please state recorded IC50 (tested on CXCR4 receptors (Homo sapiens)) of CN(Cc1cn2c(N3CCNCC3)nccc2n1)[C@H]1CCOc2cccnc21
Result: 4.2

Task: Please state recorded IC50 (tested on CXCR4 receptors (Homo sapiens)) of CN1CCN(c2nccc3nc(CN(C)[C@H]4CCCc5cccnc54)cn23)C[C@@H]1CO
Result: 1.9

Task: Please state recorded IC50 (tested on CXCR4 receptors (Homo sapiens)) of CN(Cc1cn2c(N3CCN(C4CCC4)CC3)nccc2n1)[C@H]1CCCc2cccnc21
Result: 190

Task: Please state recorded IC50 (tested on CXCR4 receptors (Homo sapiens)) of CN(Cc1cn2c(N3CCN(S(=O)(=O)c4cccc(Cl)c4)CC3)nccc2n1)[C@H]1CCCc2cccnc21
Result: 22700

* * *

target: CXCR4 receptors (Homo sapiens, UniProt P61073); construct: expressing endogenous CXCR4 receptors; endogenous in cells; assay: CXCR4-CEM calcium flux assay, antagonist mode (inhibition of SDF-1α-induced calcium flux); conditions: inhibition of calcium flux induced by 4 nM SDF-1α in CCRF-CEM cells
Sequence (P61073 whole entry): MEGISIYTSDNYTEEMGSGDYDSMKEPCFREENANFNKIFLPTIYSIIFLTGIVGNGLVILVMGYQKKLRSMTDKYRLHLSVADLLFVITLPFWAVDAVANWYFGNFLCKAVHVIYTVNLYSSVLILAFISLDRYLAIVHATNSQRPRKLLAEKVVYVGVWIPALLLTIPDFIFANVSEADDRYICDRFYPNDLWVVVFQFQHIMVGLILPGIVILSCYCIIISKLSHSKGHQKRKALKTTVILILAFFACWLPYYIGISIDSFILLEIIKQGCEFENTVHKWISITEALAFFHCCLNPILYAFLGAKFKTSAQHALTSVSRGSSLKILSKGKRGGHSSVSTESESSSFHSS
MEASURE: IC50 (nM)
# unit: nM | format: bare number

{"columns": ["COMPOUND", "UNIT_ABBREV", "IC50"],
 "data": [
  ["CN(Cc1cn2c(N3CCN(Cc4ccccn4)CC3)nccc2n1)[C@H]1CCCc2cccnc21", "nM", 9],
  ["CC(C)CCN1CCN(c2nccc3nc(CN(C)[C@H]4CCCc5cccnc54)cn23)CC1", "nM", 14]
]}

We now examine a further compound.
Task: Requested field: IC50. Item: CN(Cc1cn2c(N3CCN(CC4CCCO4)CC3)nccc2n1)[C@H]1CCCc2cccnc21 (stereo partly drawn)
Result: 60

Data provenance: patent US10450318B2
